Assay: Quantitative High-Throughput drug screen in 47 multiple myeloma cell lines against the NCATS MIPE library collection: VP6_DJ cell viability assay (AID 1919867); further: potency means the concentration at half of the fitted maximal effect; nearly all actives have a fitted effect of over 40% in size
Settings: ATP luminescence, 48 h; series mostly up to 45.8 µM
Inconclusive results are not listed. Active and inactive are the calls of the source. The call rests on the fitted dose curve; in most records, active means well fitted cell-killing curve with a large enough effect; inconclusive means small, poorly fitted or top-dose-only effect, or effect the other way; inactive means no such curve, though single readings can be large or run the other way.
This listing pairs molecules with measured Potency.

MOLECULE: CCN(CC)CCCC(C)Nc1ccnc2cc(Cl)ccc12 (stereo not given)
RESULT: 11.8 µM (active)

input: # input molecule: CN[C@@H](C)C(=O)N[C@H]1CCCC[C@H]2CC[C@@H](C(=O)N[C@@H](c3ccccc3)c3cn(CCCCc4ccc(CCCCn5cc([C@@H](NC(=O)[C@@H]6CC[C@@H]7CCCC[C@H](NC(=O)[C@H](C)NC)C(=O)N76)c6ccccc6)nn5)cc4)nn3)N2C1=O ; wanted: its Potency
output: 18.7 µM (active)

---

Assay: Drug repurposing screens with cells derived from glioblastoma tumor samples (AID 1345199); further: on the % scale 0 is the no-effect control and ±100 the full control effect; nearly all actives have a fitted effect of over 40% in size
Details: GBM patient neurospheres viability, ATP luminescence, 48 h; at 20 µM (top of the series); tumour line C
Results filed as inconclusive are left out.
MEASUREMENT_KIND: activity, negative = cell killing (%)
Report as a plain number; the unit % is understood.

Consider the following illustrative entries.
MOLECULE: O=c1n(CCCN2CCN(c3cccc(Cl)c3)CC2)nc2ccccn12
activity, negative = cell killing / %: -4.25

MOLECULE: O=C(O)COCCN1CCN(C(c2ccccc2)c2ccc(Cl)cc2)CC1 (centres undefined)
activity, negative = cell killing / %: -26.4

MOLECULE: CCC(C)(C)C(=O)O[C@H]1C[C@@H](C)C=C2C=C[C@H](C)[C@H](CC[C@@H]3C[C@@H](O)CC(=O)O3)[C@H]21
activity, negative = cell killing / %: -22.9

input: # input molecule: Nc1ccc(S(=O)(=O)Nc2ccnn2-c2ccccc2)cc1 ; wanted: its activity, negative = cell killing
output: -5.82

---

Experiment: Quantitative High-Throughput drug screen in 47 multiple myeloma cell lines against the NCATS MIPE library collection: KMS12PE_JCRB cell viability assay (AID 1918972); further: nearly all actives have a fitted effect of over 30% in size; further: potency means the concentration at half of the fitted maximal effect;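 on viability: 100% = DMSO only wells and 0% = wells with media alone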
Details: KMS12PE myeloma viability, CellTiter-Glo ATP, 48 h; series mostly up to 45.8 µM
Results filed as inconclusive are left out. The source made the active and inactive calls. The call rests on the fitted dose curve; in most records, active means well fitted cell-killing curve with a large enough effect; inconclusive means small, poorly fitted or top-dose-only effect, or effect the other way; inactive means no such curve, though single readings can be large or run the other way.
MEASUREMENT_KIND: Potency

Consider the following illustrative entries.
COMPOUND: COc1c(Cl)cc2c([nH]c3cnccc32)c1NC(=O)c1cccnc1C
RESULT: 20.9 µM (active)
//
COMPOUND: COc1nc(-c2ccc3c(c2)OCO3)n(-c2ccc(NC(=O)CSc3ccccc3)cc2)n1
RESULT: inactive
//
COMPOUND: CCOc1ccc(Cc2cc([C@@H]3O[C@H](CO)[C@@H](O)[C@H](O)[C@@H]3O)ccc2Cl)cc1
RESULT: 26.4 µM (active)
//
COMPOUND: CN(C)c1ccc(C2Nc3ccc4ccccc4c3C3=C2C(=O)CC(C)(C)C3)cc1Br (configuration not stated)
RESULT: 5.9 µM (active)
//
COMPOUND: COc1ccc(CC2=NN3C([C@@H](CCc4ccccc4)[C@@H](C)O)=NC(C)C3C(=O)N2)cc1OC (some centres not stated)
RESULT: inactive
//
COMPOUND: NC[C@H](O)c1ccc(O)c(O)c1
RESULT: inactive
//
COMPOUND: NCCCC(N)(C(=O)O)C(F)F (configuration not stated)
RESULT: inactive
//
COMPOUND: O=C1CCC(N2C(=O)c3ccccc3C2=O)C(=O)N1 (configuration not stated)
RESULT: inactive

input: # input compound: CCCS(=O)(=O)Nc1ccc(F)c(C(=O)c2c[nH]c3ncc(Cl)cc23)c1F ; wanted: its Potency
output: 16.6 µM (active)

input: Okay, and OC(CCN1CCCCC1)(c1ccccc1)C1CC2C=CC1C2 (configuration not stated) ?
output: inactive

input: Okay, and CC(=O)NC(C)c1ccc(Oc2ccc(OC(C)C)cc2)cc1 (configuration not stated) ?
output: 5.9 µM (active)

input: Okay, and Cc1ccnc(NS(=O)(=O)c2ccc(NC(=O)Nc3ccc(S(=O)(=O)Nc4nccc(C)n4)cc3)cc2)n1 ?
output: 20.9 µM (active)
